EXPERIMENT NOTES: growth inhibition of yeast control strain, primary screen, counter-screen for post-Golgi transport modulator project (AID 738)
RUN PARAMETERS: efflux-deficient yeast background strain, growth absorbance A615, 16 h; at 10 µM; active compounds read high
Hit rate of the full screen: of about 98,000 compounds, about 4,900 (5%) were called active. The sample as a whole holds a higher share of actives than the screen did.
MEASUREMENT KIND: inhibition

CN(CC(=O)Nc1cccc2c1CCCC2)S(=O)(=O)c1ccc(Cl)cc1 has a reported inhibition of -4.31% (inactive)

CN(C(=O)CC(NC(=O)c1ccccc1)(c1ccccc1)c1ccccc1)c1ccccc1 has a reported inhibition of 25.4% (inactive)

CCN(CC)CC(=O)c1c[nH]c2ccc(OC)cc12 has a reported inhibition of 15.9% (inactive)

CCOC(=O)c1cc2ccccc2nc1C has a reported inhibition of 3.8% (inactive)

CCOC(=O)c1nc(N)sc1C(=O)OCC has a reported inhibition of -8.73% (inactive)

* * *

Recorded inhibition values for a group of molecules are listed next.
EXPERIMENT NOTES: growth inhibition of yeast control strain, primary screen, counter-screen for post-Golgi transport modulator project (AID 738)
RUN PARAMETERS: efflux-deficient yeast background strain, growth absorbance A615, 16 h; at 10 µM; active compounds read high
Out of some 98,000 compounds screened, about 4,900 (5%) were called active. This excerpt belongs to a sample that is enriched for actives.
Enter your answer as a number in %; do not include the unit.

For orientation, consider the following solved cases.
O=C(Nc1ccccc1)c1nnsc1S(=O)(=O)c1ccc(Cl)cc1 ... 97.8
O=C(CCCN1C(=O)c2cccc3cccc(c23)C1=O)N1CCN(Cc2ccc3c(c2)OCO3)CC1 ... 13.6
O=C(Nc1ccc2c(c1)CCC2)c1cccc(S(=O)(=O)N2CCN(c3ccc(F)cc3)CC2)c1 ... 17.8
COC(=O)Cc1cc(=O)n(-c2nc3ccccc3s2)[nH]1 ... 11.8
CCN1CCC(=NNC(=O)c2ccc(C)c([N+](=O)[O-])c2)CC1 ... 3.82

CCC1(C)Cc2c(sc3nnn(CC(=O)Nc4ccc(Cl)cc4)c(=O)c23)CO1 (stereo not given) has a reported inhibition of 6.74

* * *

EXPERIMENT NOTES: growth inhibition of yeast control strain, primary screen, counter-screen for post-Golgi transport modulator project (AID 738)
RUN PARAMETERS: efflux-deficient yeast background strain, growth absorbance A615, 16 h; at 10 µM
The whole screen tested about 98,000 compounds, of which about 4,900 (5%) were called active. Cut-off read from the data, not from the text of the source: active = inhibition above about 30%; inactive = the rest. The full list was thinned out, with actives kept by preference.
# valid calls are True = active, False = inactive; nothing else

Cc1ccc(C(=O)Nc2ccccc2C(=O)NC2CCCCC2)cc1S(=O)(=O)N1CCOCC1 ... True
CCNCc1cc2cc(C)ccc2[nH]c1=O ... False
Cc1ccc(C(=O)Nc2ccc3c(c2)OCO3)cc1S(=O)(=O)N1CCCCC1 ... False
O=C(c1ccc(Cl)cc1)c1ccc(OCC(O)CN2CCCCC2)cc1 (stereo not given) ... False

Qu. Called result for CSc1cc(C)n(-c2ccccc2C)c(=S)c1C(C)=O
Ans. False

* * *

Recorded inhibition values for a group of compounds are listed next.
EXPERIMENT NOTES: growth inhibition of yeast control strain, primary screen, counter-screen for post-Golgi transport modulator project (AID 738)
RUN PARAMETERS: efflux-deficient yeast background strain, growth absorbance A615, 16 h; at 10 µM; active compounds read high
Hit rate of the full screen: of about 98,000 compounds, about 4,900 (5%) were called active. The sample holds actives, similar compounds and a random draw of the others, so the mix is not that of the screen.
Enter your answer as a number in %; do not include the unit.

For orientation, consider the following solved cases.
O=C(Cn1ccc([N+](=O)[O-])n1)NCc1cccs1 ... 18.9
Cn1c(=O)n(C)c2cc(S(=O)(=O)N3CCCc4ccccc43)ccc21 ... -3.51
COc1cc(CNCc2cccs2)cc(Br)c1OC ... -5.39

Could you now consider this next compound?
Cc1noc(C)c1COC(=O)c1cc2ccccc2cc1O has a reported inhibition of 19.3

* * *

EXPERIMENT NOTES: growth inhibition of yeast control strain, primary screen, counter-screen for post-Golgi transport modulator project (AID 738)
RUN PARAMETERS: efflux-deficient yeast background strain, growth absorbance A615, 16 h; at 10 µM
Among all 98,000 compounds or so, about 4,900 (5%) were called active. Cut-off read from the data, not from the text of the source: active = inhibition above about 30%; inactive = the rest. For the sample, actives were picked, then their nearest neighbours and some compounds at random.
# valid calls are y for active, n for inactive; nothing else

Study these solved cases before continuing.
O=C(Cc1ccc(S(=O)(=O)N2CCOCC2)s1)NCCC(c1ccccc1)c1ccccc1 ... n
CCC(C)NC(=O)c1c(N)n(/N=C/c2cccs2)c2nc3ccccc3nc12 (centres undefined) ... n
NC(=O)C1CCN(C(=O)c2ccc(-c3ccccc3)cc2)CC1 ... n
CC(C)N(c1ccccc1)c1ncnc(NCCC(=O)O)c1[N+](=O)[O-] ... n
N#CC1=C(N)Oc2c(sc3ccccc23)C1c1ccco1 (centres undefined) ... n
Cc1ccc(Oc2ccc3c(c2)C(=O)N(c2cccc4cccnc24)C3=O)cc1 ... n
c1ccc(-c2cn3c(n2)CCc2ccc4cccnc4c2-3)cc1 ... y
Cc1cc(C)c2c3c(sc2n1)C(c1ccccc1)C(C#N)=C(N)O3 (centres undefined) ... y

Qu. Called result for Cc1cc(C)c(C#N)c(SCc2[nH]nc3c2C(c2ccccc2)C(C#N)=C(N)O3)n1 (centres undefined)
Ans. n

Qu. Called result for CC(=O)c1nn(-c2cccc(Br)c2)cc1C(=O)c1cccc2ccccc12
Ans. n

Qu. Called result for CCOC(=O)c1cnc(-c2ccccc2)nc1Oc1ccc(C)cc1
Ans. n

Qu. Called result for CCOc1ccc(C(O)Cn2c(=N)n(CCN3CCCCC3)c3ccccc32)cc1 (centres undefined)
Ans. n

Qu. Called result for NC(=O)C1CCN(C(=O)c2ccc(C(F)(F)F)cc2)CC1
Ans. y

Qu. Called result for O=C(COc1ccc2c(C(F)(F)F)cc(=O)oc2c1)Nc1ccc2c(c1)OCCO2
Ans. n

Qu. Called result for CC(C)Cn1c(N)c(C(=O)NCc2cccs2)c2nc3ccccc3nc21
Ans. y

Qu. Called result for Cc1ccc2nc(SCc3nnc(-c4ccccc4[N+](=O)[O-])o3)c(C#N)cc2c1
Ans. n

Qu. Called result for CS(=O)(=O)N1CCN(c2ccc(C(=O)NC3C4CC5CC(C4)CC3C5)cc2[N+](=O)[O-])CC1 (centres undefined)
Ans. n

Qu. Called result for N/C(=N\OC(=O)c1cc(-c2ccccc2)nc2ccccc12)c1ccncc1
Ans. n

Qu. Called result for O=C(NC1CCCCC1)C1CCCN(S(=O)(=O)c2cccs2)C1 (centres undefined)
Ans. n

* * *

EXPERIMENT NOTES: growth inhibition of yeast control strain, primary screen, counter-screen for post-Golgi transport modulator project (AID 738)
RUN PARAMETERS: efflux-deficient yeast background strain, growth absorbance A615, 16 h; at 10 µM; active compounds read high
Out of some 98,000 compounds screened, about 4,900 (5%) were called active. Only a selection was taken, and actives are over-represented in it overall.
Recorded inhibition values for a group of compounds are listed next.

c1ccc2c(C[n+]3csc4ccccc43)cccc2c1 ... 9.79% (inactive)
O=C(NCCc1ccccc1)c1ccc(NC2=NC3CS(=O)(=O)CC3S2)cc1 (stereo not given) ... -1.06% (inactive)
O=C(CCCCn1c(=O)[nH]c2ccccc2c1=O)NCc1ccc2c(c1)OCO2 ... 1% (inactive)
COCCNS(=O)(=O)c1cc(Br)ccc1OC ... 2.48% (inactive)
O=C(Nc1ccc2sc3ccccc3c(=O)c2c1)c1ccccc1Cl ... -1.51% (inactive)

Cc1cc([N+](=O)[O-])c(N2CCC[C@@H]2C(=O)O)c([N+](=O)[O-])c1 has a reported inhibition of 18.4% (inactive)

Cc1ccc(-n2nc(N)c3c(=O)oc(N(C)C)nc32)cc1 has a reported inhibition of 33.1% (active)

Cc1cc(C)c([N+](=O)[O-])cc1-c1ccc(/C=N/NC(=O)c2nonc2N)o1 has a reported inhibition of 8.91% (inactive)

Clc1ccc(-c2cc(COc3ccccc3)no2)cc1Cl has a reported inhibition of 5.93% (inactive)

CC(c1ccco1)N(C(=O)COc1ccccc1[N+](=O)[O-])c1ccccn1 (stereo not given) has a reported inhibition of 14.2% (inactive)

* * *

EXPERIMENT NOTES: growth inhibition of yeast control strain, primary screen, counter-screen for post-Golgi transport modulator project (AID 738)
RUN PARAMETERS: efflux-deficient yeast background strain, growth absorbance A615, 16 h; at 10 µM; active compounds read high
Hit rate of the full screen: of about 98,000 compounds, about 4,900 (5%) were called active. This is one part of a sample in which actives are shown more often than they occur.
MEASUREMENT KIND: inhibition (%)
Enter your answer as a number in %; do not include the unit.

Cc1ccc(N2C(=O)CC(Sc3ncn[nH]3)C2=O)cc1 (stereo unspecified) has a reported inhibition of -0.63

O=S(=O)(c1ccccc1)N(CC(O)CN1CCCCC1)c1ccccc1 (stereo unspecified) has a reported inhibition of -1.97

O=C(O)/C=C/C(=O)Nc1ccc(F)cc1F has a reported inhibition of 11.5

CCC(=O)c1c[nH]c(C(=O)NCC2CCCO2)c1 (stereo unspecified) has a reported inhibition of -1.27

CCOC(=O)c1sc2nc(SC)nc(-c3ccccc3)c2c1N has a reported inhibition of -7.15

C=CCn1c(Oc2ccc(C(=O)OC)cc2)nc2c1c(=O)n(C)c(=O)n2C has a reported inhibition of 11.7
